- Test system: rat SGLT2 mRNA
- Measurement Protocol: Rat SGLT2 mRNA in kidney, 1-10-1 gapmers, 250 nmol/kg (Table 66)
- Format: in vivo
- Condition Parameters: 250 nmol/kg i.p. twice per week for three weeks, Sprague-Dawley rat kidney
Strand notation (5' to 3'): a small letter for the sugar, then the base; units joined by * are phosphorothioate-linked, units joined directly phosphodiester-linked; [ ] holds rarer units or linkages, { } end groups; capitals alone tell only the bases. e = 2'-O-(2-methoxyethyl) (MOE); [5mC] = 5-methylcytosine; d = 2'-deoxy (DNA)
Can you tell me % change in SGLT2 expression relative to saline for the items I'm about to list?
One number for each entry, in %.

Answer for every listed entry: what is its % change in SGLT2 expression relative to saline? The entries follow.
1. ISIS 381408: 1-10-1 MOE gapmer targeting SGLT2 mRNA (TACCGAACACCT; sugars from the 5' end e1 d10 e1, backbone and methylation of C not given here)
2. ISIS 379699: GGCATGAGCTTC 1-10-1 MOE, SGLT2 (eG*dG*d[5mC]*dA*dT*dG*dA*dG*d[5mC]*dT*dT*e[5mC])
3. ISIS 370717: TAGCCACCAACT 1-10-1 MOE gapmer, phosphorothioate, SGLT-2 (sugars from the 5' end e1 d10 e1, all phosphorothioate, methylation of C not given here)
4. ISIS 379692: 1-10-1 MOE gapmer, SGLT2 (eT*dG*dT*dT*d[5mC]*d[5mC]*dA*dG*d[5mC]*d[5mC]*d[5mC]*eA)
5. ISIS 379702 (eG*d[5mC]*dA*d[5mC]*dA*d[5mC]*dA*dG*d[5mC]*dT*dG*e[5mC])

["−5", "−75", "−70", "−85", "−25"]

====

- Test system: PCSK9 mRNA
- Measurement Protocol: Dose-dependent antisense inhibition of PCSK9 in Hep3B cells, EC50 (Table 76)
- Type: cell-based, human
- Condition Parameters: 10 nM
Strand notation (5' to 3'): a small letter for the sugar, then the base; units joined by * are phosphorothioate-linked, units joined directly phosphodiester-linked; [ ] holds rarer units or linkages, { } end groups; capitals alone tell only the bases. e = 2'-O-(2-methoxyethyl) (MOE); [5mC] = 5-methylcytosine; d = 2'-deoxy (DNA)
Can you tell me % Inhibition for the items I'm about to list?
Numbers only, in %.

Some substances with recorded % Inhibition:
Record 400307 (antisense e[5mC]*eG*dG*d[5mC]*d[5mC]*dG*d[5mC]*dT*dG*dA*d[5mC]*d[5mC]*eA*e[5mC]) [compound 400307] . Reported % Inhibition: 39

Record 400309 (antisense e[5mC]*e[5mC]*d[5mC]*dG*dG*d[5mC]*d[5mC]*dG*d[5mC]*dT*dG*dA*e[5mC]*e[5mC]) [compound 400309] . Reported % Inhibition: 23

Record 400330 (antisense e[5mC]*e[5mC]*dA*d[5mC]*dG*dT*dG*dG*dG*d[5mC]*dA*dG*e[5mC]*eA) [compound 400330] . Reported % Inhibition: 32

Record 400327 (antisense eG*eT*d[5mC]*d[5mC]*d[5mC]*d[5mC]*dA*dA*dA*dG*dT*d[5mC]*e[5mC]*e[5mC]) [compound 400327] . Reported % Inhibition: 37

Answer for every listed entry: what is its % Inhibition? The entries follow.
1. 400352 (antisense e[5mC]*eA*d[5mC]*d[5mC]*d[5mC]*dT*d[5mC]*dA*d[5mC]*d[5mC]*d[5mC]*d[5mC]*e[5mC]*eA) [compound 400352]
2. 400308 (antisense e[5mC]*e[5mC]*dG*dG*d[5mC]*d[5mC]*dG*d[5mC]*dT*dG*dA*d[5mC]*e[5mC]*eA) [compound 400308]
3. 400331 (antisense eG*e[5mC]*d[5mC]*dA*d[5mC]*dG*dT*dG*dG*dG*d[5mC]*dA*eG*e[5mC]) [compound 400331]
4. 400353 (antisense eA*e[5mC]*dA*d[5mC]*d[5mC]*d[5mC]*dT*d[5mC]*dA*d[5mC]*d[5mC]*d[5mC]*e[5mC]*e[5mC]) [compound 400353]

[16, 10, 40, 27]

====

- Test system: rat DGAT2 mRNA
- Measurement Protocol: Dose-dependent inhibition of DGAT2 in A10 cells (Tables 82, 83)
- Assay type: cell-based
- Condition Parameters: 50 nM (Table 83)
- Experimental: Additional short antisense compounds targeted to DGAT2 mRNA were tested in vitro in a dose-response experiment. A10 cells were prepared as described above and treated with 6.25, 12.5, 25.0, 50.0, 100.0, and 200.0 nM short antisense compounds to determine if DGAT2 inhibition occurs in a dose-dependent manner. […] Additional short antisense compounds targeted to DGAT2 mRNA were tested in vitro. […] DGAT2 mRNA was measured using quantitative real-time PCR, as described herein. […]
Strand notation (5' to 3'): a small letter for the sugar, then the base; units joined by * are phosphorothioate-linked, units joined directly phosphodiester-linked; [ ] holds rarer units or linkages, { } end groups; capitals alone tell only the bases. e = 2'-O-(2-methoxyethyl) (MOE); [5mC] = 5-methylcytosine; d = 2'-deoxy (DNA)
percent inhibition of rat DGAT2 below 40% gives 0 (no); percent inhibition of rat DGAT2 at or above it gives 1 (yes).

# example entries with known answers
Could you verify whether the entry 372530 (antisense eT*e[5mC]*eG*dG*d[5mC]*d[5mC]*d[5mC]*d[5mC]*dA*dG*dG*dA*dG*e[5mC]*e[5mC]*e[5mC]) [compound 372530] shows percent inhibition of rat DGAT2 of no less than 40%?
0 (no)

Could you verify whether the entry 372580 (antisense eG*eG*dT*dT*dG*dT*dG*dT*dG*dT*d[5mC]*dT*eT*e[5mC]) [compound 372580] shows percent inhibition of rat DGAT2 of no less than 40%?
0 (no)

Could you verify whether the entry 372503 (antisense eG*e[5mC]*eA*dG*dG*dT*dT*dG*dT*dG*dT*dG*dT*e[5mC]*eT*eT) [compound 372503] shows percent inhibition of rat DGAT2 of no less than 40%?
1 (yes)

Could you verify whether the entry 372594 (antisense eA*e[5mC]*dA*dG*dA*dA*dG*dG*d[5mC]*dA*d[5mC]*d[5mC]*e[5mC]*eA) [compound 372594] shows percent inhibition of rat DGAT2 of no less than 40%?
0 (no)

Could you verify whether the entry 372563 (antisense eA*eG*d[5mC]*d[5mC]*dA*dG*dG*dT*dG*dA*d[5mC]*dA*eG*eA) [compound 372563] shows percent inhibition of rat DGAT2 of no less than 40%?
0 (no)

Now for a further substance.
Could you verify whether the entry 372586 (antisense eG*eT*dT*d[5mC]*d[5mC]*dT*dG*dG*dT*dG*dG*dT*e[5mC]*eA) [compound 372586] shows percent inhibition of rat DGAT2 of no less than 40%?
0 (no)

====

- Test system: PTP1B mRNA
- Measurement Protocol: Dose response for human PTP1B in HuVEC cells, PPS 198 and PPS 3000 (Tables 86, 87)
- Type: cell-based
- Condition Parameters: PPS 3000, 10.0 nM
Strand notation (5' to 3'): a small letter for the sugar, then the base; units joined by * are phosphorothioate-linked, units joined directly phosphodiester-linked; [ ] holds rarer units or linkages, { } end groups; capitals alone tell only the bases. e = 2'-O-(2-methoxyethyl) (MOE); [5mC] = 5-methylcytosine; d = 2'-deoxy (DNA)
% Inhibition below 80% gives F; % Inhibition at or above it gives T.

# example entries with known answers
Could you verify whether the entry 399113 (eG*eT*dT*dA*dG*dG*d[5mC]*dA*dA*dA*dG*dG*eG*e[5mC]; antisense) [compound 399113] shows % Inhibition of no less than 80%?
F

Could you verify whether the entry 399276 (eG*eA*dG*dG*dT*dA*dT*d[5mC]*d[5mC]*d[5mC]*dA*dT*e[5mC]*eT; antisense) [compound 399276] shows % Inhibition of no less than 80%?
F

Could you verify whether the entry 399096 (eT*eG*d[5mC]*dT*d[5mC]*dG*dA*dA*d[5mC]*dT*d[5mC]*d[5mC]*eT*eT; antisense) [compound 399096] shows % Inhibition of no less than 80%?
F

Could you verify whether the entry 399173 (eA*eT*dG*d[5mC]*dT*dA*dG*dT*dG*d[5mC]*dA*d[5mC]*eT*eA; antisense) [compound 399173] shows % Inhibition of no less than 80%?
F

***
Could you verify whether the entry 399301 (GTGTGCACACAGCT; all C 5-methyl, all phosphorothioate, sugars by position not given here; further chemistry not fully specified) [compound 399301] shows % Inhibition of no less than 80%?
T

====

- Tested on: PCSK9 mRNA
- Measurement Protocol: Dose-dependent antisense inhibition of PCSK9 in Hep3B cells, EC50 (Table 76)
- Format: cell-based, human
- Condition Parameters: 5 nM
Strand notation (5' to 3'): a small letter for the sugar, then the base; units joined by * are phosphorothioate-linked, units joined directly phosphodiester-linked; [ ] holds rarer units or linkages, { } end groups; capitals alone tell only the bases. e = 2'-O-(2-methoxyethyl) (MOE); [5mC] = 5-methylcytosine; d = 2'-deoxy (DNA)
% Inhibition below 40% gives label 0; % Inhibition at or above it gives label 1.

Could you verify whether the entry 400307 (antisense e[5mC]*eG*dG*d[5mC]*d[5mC]*dG*d[5mC]*dT*dG*dA*d[5mC]*d[5mC]*eA*e[5mC]) [compound 400307] shows % Inhibition of no less than 40%?
label 0

Could you verify whether the entry 400331 (antisense eG*e[5mC]*d[5mC]*dA*d[5mC]*dG*dT*dG*dG*dG*d[5mC]*dA*eG*e[5mC]) [compound 400331] shows % Inhibition of no less than 40%?
label 0

Could you verify whether the entry 400353 (antisense eA*e[5mC]*dA*d[5mC]*d[5mC]*d[5mC]*dT*d[5mC]*dA*d[5mC]*d[5mC]*d[5mC]*e[5mC]*e[5mC]) [compound 400353] shows % Inhibition of no less than 40%?
label 0

Could you verify whether the entry 400309 (antisense e[5mC]*e[5mC]*d[5mC]*dG*dG*d[5mC]*d[5mC]*dG*d[5mC]*dT*dG*dA*e[5mC]*e[5mC]) [compound 400309] shows % Inhibition of no less than 40%?
label 1

Now for a further substance.
Could you verify whether the entry 400308 (antisense e[5mC]*e[5mC]*dG*dG*d[5mC]*d[5mC]*dG*d[5mC]*dT*dG*dA*d[5mC]*e[5mC]*eA) [compound 400308] shows % Inhibition of no less than 40%?
label 0
